Overview of reported ELISA luminescence signal at 10 nmol/L peptide, relative to SEQ ID NO: 47 (=1) across a group of binders:
# system: T1, Recombinant Human FGFR2 alpha (IIIc) Fc Chimera Protein, CF (R&D systems, 712-FR-050) (human, UniProt P21802 22-377)
# T1 construct: bought; not shown: Fc part of the chimera
# T1 sequence (P21802 22-377, change not shown): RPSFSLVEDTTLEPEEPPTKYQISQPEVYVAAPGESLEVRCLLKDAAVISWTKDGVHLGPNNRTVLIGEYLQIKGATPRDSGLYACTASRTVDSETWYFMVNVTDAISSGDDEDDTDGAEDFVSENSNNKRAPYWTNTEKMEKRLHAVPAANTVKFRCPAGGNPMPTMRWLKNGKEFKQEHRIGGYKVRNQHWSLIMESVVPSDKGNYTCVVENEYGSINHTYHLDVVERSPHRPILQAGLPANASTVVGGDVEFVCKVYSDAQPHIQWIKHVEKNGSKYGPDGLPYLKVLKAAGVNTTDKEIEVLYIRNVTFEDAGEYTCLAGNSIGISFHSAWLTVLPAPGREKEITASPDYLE
# assay text: ELISA on plate-bound FGFR2-Fc
Bridge positions count the residues as written; N and C are the ends. Ends that are not written are not given here. COCH2 = acetyl group that carries the bridge

See these solved cases before continuing.
stdin: Output ELISA luminescence signal at 10 nmol/L peptide, relative to SEQ ID NO: 47 (=1) of YCEENYLDPEQYQHFIYFK(COCH2)Y (thioether 2-19 (inferred)) [cyclic peptide SEQ ID NO: 274]
stdout: 0.1 to 0.5 ratio

stdin: // Input: YCEENYLDPEQYQYFIYFK(COCH2)L (thioether 2-19 (inferred)) [cyclic peptide SEQ ID NO: 309] . Output its ELISA luminescence signal at 10 nmol/L peptide, relative to SEQ ID NO: 47 (=1) only.
stdout: ≥ 0.7 ratio

stdin: Please list ELISA luminescence signal at 10 nmol/L peptide, relative to SEQ ID NO: 47 (=1) recorded for the binder YCEENYLDPEQYQYFKYFK(COCH2)Y (thioether 2-19; not fully specified; printed as Y-(C)-EENYLDPEQYQYFKYF-(K(acetyl))-Y) [cyclic peptide SEQ ID NO: 344]
stdout: ≥ 0.7 ratio

stdin: Give the reported ELISA luminescence signal at 10 nmol/L peptide, relative to SEQ ID NO: 47 (=1) for this binder. YCEENYLDPEQYQYFIQFK(COCH2)Y (thioether 2-19 (inferred)) [cyclic peptide SEQ ID NO: 299]
stdout: ≥ 0.7 ratio

Next binder, ELISA luminescence signal at 10 nmol/L peptide, relative to SEQ ID NO: 47 (=1) to be filled in.
stdin: Read off the recorded ELISA luminescence signal at 10 nmol/L peptide, relative to SEQ ID NO: 47 (=1) for YRSRKYSSWYVALKR (not fully specified) [linear peptide SEQ ID NO: 35]
stdout: < 0.1 ratio
